Hi there, I'd appreciate the recorded protein stability index for every entry that follows.
protocol: protein stability index of a GFP-peptide fusion (GPS, HEK-293T) (PSI 1-6); higher = more stable;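 note: 24-mer peptide tiles fused after GFP, lentivirally expressed, FACS-sorted into six equal bins by GFP/DsRed ratio, decoded by Illumina sequencing, PSI is the read-weighted mean bin number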
testParameters: treatment: DMSO; c terminus: a fixed tail appended

Examples with answers:
[[record]]
constructsequence = "EKVSQELKEPLHKALQMLLSQPVT [BCL2L13]"
valuekind = "protein stability index"
recordedvalue = 2.88

[[record]]
constructsequence = "MDEISEKLKKGICEALEDSDGRQD [MATN2]"
valuekind = "protein stability index"
recordedvalue = 5.42

[[record]]
constructsequence = "TFAGDTCQVALNFANEEEAKKFRK [WASL]"
valuekind = "protein stability index"
recordedvalue = 4.75

[[record]]
constructsequence = "ASWAKPHYEFNLSRMKFRGNGALS [LCOR]"
valuekind = "protein stability index"
recordedvalue = 2.56


Look up protein stability index for the entries below, preserving their order.
1. YKYGAIRDIDLKNRRGGPPFAFVE [SRSF1]
2. TRILKHSPESSRGQCGENLAWASY [GLIPR2]
3. GSGYEKLGPSRDPDPLNICVFILL [RTP4]
4. NGTRVQEEPELVFTLGDCDVIQAL [FKBP8]
5. SETHAAGHSQEKTHSREKSSQESG [CHGB]
6. AVEGAARTTPSRREITGVQAQPGE [PALM]

# output
1. 2.38
2. 2.38
3. 3.15
4. 3.72
5. 5.67
6. 5.22

Go through the items and report each one's protein stability index.
1. SVSREARQTVPPLTVRLHTQSVSE [PWWP2B]
2. VNYSDPNDADKAINTLNGLKLQTK [ELAVL3]
3. NGKTIEMDTQFTIRARELQNIYKC [IQUB]
4. LLPRQPLPLGIKVYEDETKVVHAV [PALM]
5. YSNLLVRDFRPTDQEEIKTLERYM [TENT5C]
6. RVRKEAMMGLAQIYKKYALQSAAG [PDS5B]
7. LFGGFADFGSAAASGSFPSQVTAT [CLINT1]
8. FPEELHRKAALEQDLAFWYGPRWQ [HMOX1]

# output
4.29
4.66
2.57
3.47
3.08
2.2
2.71
2.3

For the 4 sequences below, give their protein stability index values.
1. EERILHQQVKCIITEEKVCMVCKK [VPS39]
2. GSPVSSWILLAESNSADDETDDPR [OAS1]
3. IPAVGSSLSEALDLIESDPDAWCD [MYBL2]
4. VTGREGFPTDAPYPTTLGKDRECQ [ZNF8]

# output
4.21
5.02
4.47
4.74

Please report protein stability index for every entry that follows.
1. HADCDRRSRIEALELLGASFANDR [FEM1B]
2. PVRCAGDWLPRGLGWGGRGAAVCA [ALG2]
3. LIDRSGRHFGTILNYLRDGSVPLP [KCTD13]
4. ARICRLLKHPNIVRLHDSISEEGH [CAMK2A]
5. AVNRARRPLARPIKRGDILPPEKG [RHOBTB1]

# output
1. 3.98
2. 2.57
3. 2.37
4. 2.85
5. 3.66

----------
protocol: protein stability index of a GFP-peptide fusion (GPS, HEK-293T) (PSI 1-6); higher = more stable
testParameters: treatment: MLN4924 1 uM, 8 h; c terminus: a fixed tail appended
Give measured protein stability index for each item. Keep answers brief.
Numbers only.

[[record]]
constructsequence = "LLSTSLDAKDELEERLERCMSIVT [INTS3]"
valuekind = "protein stability index"
recordedvalue = 3.51

[[record]]
constructsequence = "GPNPSKLIQQFLTLRPDQQLHIFN [CDS2]"
valuekind = "protein stability index"
recordedvalue = 2.09


Hi team, please reply with protein stability index for each item in this list.
1. HVIGEDAACIAYIRLTQYIDGQGR [CAMK2B]
2. EMPYNIWCDGCKNHIGMGVRYNAE [YJU2B]
3. HCGELKRRLGLSTLGELKQNLSRS [TPD52L2]
4. EWDKNKSAFPFSDKLGELSDKIGS [CLINT1]
5. TPEPDTCHELLGHVPLLAEPSFAQ [TPH1]
6. GDKASPDQNASTHTPQSSVKTSVP [CLINT1]
7. YNISEFTRRHPGGSRVISHYAGQD [FADS1]

# output
1. 2.08
2. 2.49
3. 3.22
4. 3.6
5. 3.91
6. 5.38
7. 3.42

Please state protein stability index for every sequence in the list that follows.
1. EGVDIKNGTEDLPYAMKPIDYYTE [NSDHL]
2. GWFVRELRVEFAAENYLSGGGPGD [FBXO33]
3. SLLDVQRVPSFESFEDDCSQSLCL [ETS2]

# output
[4.76, 2.21, 3.67]

Look up protein stability index for the entries below, preserving their order.
1. RGIAIVSVLVILISIVIFCLETLP [KCNA4]
2. PTQEEWRQVVDILWSDPMAQEGCK [PPEF2]
3. SITHYRPVSASRSSLDLSYYPTSS [EMD]
4. DRISTTFRLTTLLMSGCSSELKNR [PLK2]
5. GVGAYGTVYKARDPHSGHFVALKS [CDK4]
6. TLLVCGKKAYDYFQAKKIPIVSSL [PDZK1]

# output
[2.26, 4.21, 3.23, 2.43, 3.05, 2.58]

Batch request: protein stability index per item, same order as input.
1. YKYGAIRDIDLKNRRGGPPFAFVE [SRSF1]
2. KTERINALELLGATFVDKKRDLLG [FEM1C]
3. HTCLMISCYKGHREIARYLLEQGA [FEM1A]
4. TLLLELEQDSGVQVEGLTVQYLGQ [ADAMTS4]
5. STMSLNIITVTLNMEKYNFLGISI [DVL3]
6. VCRARPRACSHLIRLMQRCWQGDP [RIPK4]
7. LTDGHFENILADNSVNDQTKILVV [SERPINB5]

# output
2.62
3.4
2.38
3.23
2.89
2.86
3.67

Hi, could you look up protein stability index for each item in my list?
1. NHGFEVLYHSVKQGPISTKELADF [FCHO1]
2. CKNGETLLGAVNFFVSSINTLVTK [ARFIP2]

# output
[3.29, 2.64]
